experimentalSystem: T1, biotinylated hOX40L (R&D Systems, biotinylated in house) (human, UniProt P23510 51-183, biotinylated with Sulfo-NHS-LC-Biotin, sites not stated)
T1 construct: same bought protein as m10, biotinylated; also called biotinylated OX40L
T1 sequence: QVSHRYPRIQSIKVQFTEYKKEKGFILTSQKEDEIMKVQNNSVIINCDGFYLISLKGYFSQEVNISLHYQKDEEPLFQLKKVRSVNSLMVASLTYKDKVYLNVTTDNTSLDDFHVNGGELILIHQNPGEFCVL
protocolDetails: hOX40L/hOX40 AlphaScreen, sample heated 1 min at Tm+10 C
parameterMeasured: IC50

OX40L075 (VHH, not shown: small tags and cut ends) VHH: EVQLVESGGGLVQPGGSLRLSCAASGRSFSTYIMGWFRQAPGKEREFVATISRSGITTRSADSVKGRFTISRDNSKNTVYLQMNSLRPEDTAVYYCAAGPYVEQTLGLYQTLGPWDYWGQGTLVTVSS = 1.9 nM
OX40L01B11 (VHH, monovalent Nanobody from E. coli; not shown: C-terminal c-myc and His6 tag) VHH: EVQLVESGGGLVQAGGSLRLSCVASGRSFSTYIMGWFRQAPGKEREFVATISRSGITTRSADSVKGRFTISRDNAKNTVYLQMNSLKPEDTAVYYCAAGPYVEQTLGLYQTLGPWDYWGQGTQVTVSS = 0.6 nM
OX40L027 (VHH, not shown: small tags and cut ends) VHH: EVQLVESGGGLVQPGGSLRLSCAASGRTFSSIYAKGWFRQAPGKEREFVAAISRSGRSTSYADSVKGRFTISRDNSKNTVYLQMNSLRPEDTAVYYCAAVGGATTVTASEWDYWGQGTLVTVSS = 0.07 nM

[in] Please look at this binder and report its IC50: OX40L039 (VHH, not shown: small tags and cut ends) VHH: DVQLVESGGGLVQPGGSLRLSCAASGRTFSSIYAKGWFRQAPGKEREFVAAISRSGRSTSYADSVKGRFTISRDNSKNTVYLQMNSLRPEDTAVYYCAAVGGATTVTASEWDYWGQGTLVTVSS
[out] 0.05 nM

[in] Return the recorded IC50 value; entry: OX40L026 (VHH, not shown: small tags and cut ends) VHH: EVQLVESGGGLVQPGGSLRLSCAASGRTFSSIYAKGWFRQAPGKEREFVAAISRSGRSTSYADSVKGRFTISRDNAKNTVYLQMNSLRPEDTAVYYCAAVGGATTVTASEWDYWGQGTLVTVSS
[out] 0.06 nM
